These data points were gathered from ChEMBL document CHEMBL1140782.

- target or test system: Gamma-secretase
- assay info: Inhibition of human gamma secretase in H4 cells assessed as reduction of amyloid beta-40 levels
IC50: recorded values
Record the value in nM, omitting the unit from your answer.

Known IC50 results, listed for orientation:
structure=C[C@H](CCCN1CCOCC1)N(c1cc(Cl)ccc1CO)S(=O)(=O)c1ccc(Cl)cc1 target_or_test_system=Gamma-secretase assay_result=3.1
structure=Cc1nnnn1CCC[C@@H](C)N(c1cc(Cl)ccc1CO)S(=O)(=O)c1ccc(Cl)cc1 target_or_test_system=Gamma-secretase assay_result=0.75
structure=C=C(Cl)CN(c1cc(Cl)ccc1CO)S(=O)(=O)c1ccc(C)cc1 target_or_test_system=Gamma-secretase assay_result=850
structure=Cc1nnn(CCC[C@@H](C)N(c2cc(Cl)ccc2CO)S(=O)(=O)c2ccc(Cl)cc2)n1 target_or_test_system=Gamma-secretase assay_result=6.1
structure=COCC(=O)NCCC[C@@H](C)N(c1cc(Cl)ccc1CO)S(=O)(=O)c1ccc(Cl)cc1 target_or_test_system=Gamma-secretase assay_result=6.9

Consider the compound "C[C@H](CCCNC=O)N(c1cc(Cl)ccc1CO)S(=O)(=O)c1ccc(Cl)cc1" and give its measured IC50. 5.1

Need IC50 of "C[C@H](CCCNS(=O)(=O)c1ccccc1)N(c1cc(Cl)ccc1CO)S(=O)(=O)c1ccc(Cl)cc1" , thanks. 7.4

Record request: IC50 value, item "CC(C)C(=O)NCCC[C@@H](C)N(c1cc(Cl)ccc1CO)S(=O)(=O)c1ccc(Cl)cc1" 14

# IC50 lookup, item "C[C@H](CCCNC(=O)CO)N(c1cc(Cl)ccc1CO)S(=O)(=O)c1ccc(Cl)cc1" 8.1

Look up IC50: "C[C@H](CCCn1cnnn1)N(c1cc(Cl)ccc1CO)S(=O)(=O)c1ccc(Cl)cc1" 0.51

Param item = "C[C@H](CCCN(C)S(C)(=O)=O)N(c1cc(Cl)ccc1CO)S(=O)(=O)c1ccc(Cl)cc1" ; retrieve measured IC50. 0.32

Query: IC50; subject: "C[C@H](CCCNS(C)(=O)=O)N(c1cc(Cl)ccc1CO)S(=O)(=O)c1ccc(Cl)cc1" 0.23

Look up IC50 for this compound: "C[C@H](CCCn1ccnn1)N(c1cc(Cl)ccc1CO)S(=O)(=O)c1ccc(Cl)cc1" 0.9

Can you share its IC50? I mean this compound: "C[C@H](CCCn1ncnn1)N(c1cc(Cl)ccc1CO)S(=O)(=O)c1ccc(Cl)cc1" 1.2

Entry under review: "C[C@H](CCCN(C)C)N(c1cc(Cl)ccc1CO)S(=O)(=O)c1ccc(Cl)cc1" . Reported IC50? 6.5

---

- Tested on: Brain
- assay info: Drug level in Tg2576 beta-APP-Swedish transgenic mouse brain at 200 umol/kg, po
- Assay type: ADME, organism-based
- settings: in vivo, read-out: Drug uptake
Recorded concentration for the following molecules
Note: unit nM is implicit; provide only the numeric part.

structure=C[C@H](CCCN(C)S(C)(=O)=O)N(c1cc(Cl)ccc1CO)S(=O)(=O)c1ccc(Cl)cc1 property_name=concentration assay_result=759

Which concentration value is on record for "C[C@H](CCCn1cnnn1)N(c1cc(Cl)ccc1CO)S(=O)(=O)c1ccc(Cl)cc1" ? 1160

---

- Tested on: Plasma
- assay info: Drug level in Tg2576 beta-APP-Swedish transgenic mouse plasma at 200 umol/kg, po
- Assay type: ADME, organism-based
- settings: in vivo
property name: concentration
In your response, put the unit directly after the numeric value.

structure=C[C@H](CCCn1cnnn1)N(c1cc(Cl)ccc1CO)S(=O)(=O)c1ccc(Cl)cc1 target_or_test_system=Plasma property_name=concentration assay_result="5.47 µM"

# next compound below
Observed concentration on Plasma for "C[C@H](CCCN(C)S(C)(=O)=O)N(c1cc(Cl)ccc1CO)S(=O)(=O)c1ccc(Cl)cc1" , please. 12.3 µM

---

- target or test system: Gamma-secretase
- assay info: Inhibition of human gamma secretase in H4 cells assessed as reduction of amyloid beta-40 levels
property name: IC50 (nM)
# value in nM; strip the unit string

In the examples that follow, each entry is paired with its recorded IC50.
structure=C[C@H](CCCn1nnnc1-c1ccccc1)N(c1cc(Cl)ccc1CO)S(=O)(=O)c1ccc(Cl)cc1 assay_result=15
structure=C[C@H](CCCNC(=O)[C@@H](O)c1ccccc1)N(c1cc(Cl)ccc1CO)S(=O)(=O)c1ccc(Cl)cc1 assay_result=2.9

What value of IC50 has been reported for the following compound? "CCC(=O)NCCC[C@@H](C)N(c1cc(Cl)ccc1CO)S(=O)(=O)c1ccc(Cl)cc1" 13

Bench note: what IC50 did "CNCCC[C@@H](C)N(c1cc(Cl)ccc1CO)S(=O)(=O)c1ccc(Cl)cc1" show? 262

Returns the measured IC50 for the input compound. Input: "C[C@H](CCCn1nnnc1N(C)C)N(c1cc(Cl)ccc1CO)S(=O)(=O)c1ccc(Cl)cc1" 0.53

Consider the compound shown here: "C[C@H](CCCn1cccn1)N(c1cc(Cl)ccc1CO)S(=O)(=O)c1ccc(Cl)cc1" What is its recorded IC50? 18

Request the reported IC50 associated with "C[C@H](CCCNC(=O)c1ccccc1)N(c1cc(Cl)ccc1CO)S(=O)(=O)c1ccc(Cl)cc1" 15

Fill in: IC50 of "C[C@H](CCCn1nnc(-c2ccccc2)n1)N(c1cc(Cl)ccc1CO)S(=O)(=O)c1ccc(Cl)cc1" is ___ 61

Bench note: what IC50 did "C[C@H](CCCn1nccn1)N(c1cc(Cl)ccc1CO)S(=O)(=O)c1ccc(Cl)cc1" show? 12

---

- target or test system: Gamma-secretase
- assay info: Inhibition of human gamma secretase in H4 cells assessed as reduction of amyloid beta-40 levels
Hi! Could you tag entries with IC50 below 50 nM as Condition met, and those at or above as Condition not met? Much appreciated.

// below: answered compounds
compound=C[C@H](CCCn1nnc(N(C)C)n1)N(c1cc(Cl)ccc1CO)S(=O)(=O)c1ccc(Cl)cc1 target_or_test_system=Gamma-secretase group_label="Condition met"
compound=C[C@H](CCCN)N(c1cc(Cl)ccc1CO)S(=O)(=O)c1ccc(Cl)cc1 target_or_test_system=Gamma-secretase group_label="Condition not met"
compound=C[C@H](CCCN1CCN(C)CC1)N(c1cc(Cl)ccc1CO)S(=O)(=O)c1ccc(Cl)cc1 target_or_test_system=Gamma-secretase group_label="Condition met"
compound=C[C@H](CCCNC(=O)Cc1ccccc1)N(c1cc(Cl)ccc1CO)S(=O)(=O)c1ccc(Cl)cc1 target_or_test_system=Gamma-secretase group_label="Condition met"
compound=C[C@H](CCCN1CCCS1(=O)=O)N(c1cc(Cl)ccc1CO)S(=O)(=O)c1ccc(Cl)cc1 target_or_test_system=Gamma-secretase group_label="Condition met"
compound=C[C@H](CCCn1cncn1)N(c1cc(Cl)ccc1CO)S(=O)(=O)c1ccc(Cl)cc1 target_or_test_system=Gamma-secretase group_label="Condition met"
compound="C[C@H](CCCNC1CCCO1)N(c1cc(Cl)ccc1CO)S(=O)(=O)c1ccc(Cl)cc1 (some centres undefined)" target_or_test_system=Gamma-secretase group_label="Condition met"

Field: below-cutoff. Rule: recorded IC50 strictly less than 50 nM. Subject: "C[C@H](CCCNC(=O)CCc1ccccc1)N(c1cc(Cl)ccc1CO)S(=O)(=O)c1ccc(Cl)cc1" Condition not met

---

- target or test system: Gamma-secretase
- assay info: Inhibition of human gamma secretase in H4 cells assessed as reduction of amyloid beta-40 levels
- Type: cell-based
// reported pIC50 for each item listed
To interpret pIC50, take it as minus log10 of a concentration measured in moles per litre.

structure=C[C@H](CCCN1CCc2ccccc2C1)N(c1cc(Cl)ccc1CO)S(=O)(=O)c1ccc(Cl)cc1 property_name=pIC50 assay_result=7.08
structure=C[C@H](CCCNC(=O)[C@H](O)c1ccccc1)N(c1cc(Cl)ccc1CO)S(=O)(=O)c1ccc(Cl)cc1 property_name=pIC50 assay_result=8.80
structure=CC(=O)NCCC[C@@H](C)N(c1cc(Cl)ccc1CO)S(=O)(=O)c1ccc(Cl)cc1 property_name=pIC50 assay_result=8.14
structure=C[C@H](CCCNc1ccccc1)N(c1cc(Cl)ccc1CO)S(=O)(=O)c1ccc(Cl)cc1 property_name=pIC50 assay_result=7.44
structure=C[C@H](CCCn1ccnc1)N(c1cc(Cl)ccc1CO)S(=O)(=O)c1ccc(Cl)cc1 property_name=pIC50 assay_result=7.96

Shift focus to the following entry.
# lookup: pIC50 of "CCC[C@@H](C)N(c1cc(Cl)ccc1CO)S(=O)(=O)c1ccc(Cl)cc1" 8.30
